- target_system: TPP-binding domain of A. thaliana (128-nucleotide RNA)
- experimental_protocol: In-line probing of Arabidopsis TPP-binding domain
- stated_conditions: read-out: apparent dissociation constant (KD)
pKd: −log10 of the molar value.
observable: pKd

compound="Cc1ncc(C[n+]2csc(CCO[P@](=O)(O)OP(=O)(O)O)c2C)c(N)n1 [TPP, thiamine pyrophosphate]" observable=pKd result=~7.30

* * *

- Test system: 80 ydhL RNA
- experimental_protocol: In-line probing of 80 ydhL RNA
- Assay type: binding, B. subtilis
observable: binding / structural modulation

molecule="c1ncc2[nH]cnc2n1 [P, purine]" result="measurable binding"
molecule="CNc1ncnc2nc[nH]c12 [MA, 6-methylaminopurine]" result="measurable binding"
molecule="Nc1ncc2[nH]cnc2n1 [2-aminopurine]" result="measurable binding"

* * *

- target_system: 124 yitJ RNA
- experimental_protocol: In-line probing of 124 yitJ RNA
- stated_conditions: minimized aptamer domain
observable: Kd

compound="C[S+](CC[C@H](N)C(=O)O)C[C@H]1O[C@@H](n2cnc3c(N)ncnc32)[C@H](O)[C@@H]1O (stereo partly shown)" target_system="124 yitJ RNA" result="~4 nM"

* * *

- target_system: 165 thiM RNA
- Format: binding, E. coli
- stated_conditions: thiM RNA as reported in Example 3 (FIG. 13); read-out: apparent KD
Recorded Kd, one value per entry.
observable: Kd (nM)

compound=Cc1ncc(C[n+]2csc(CCO)c2C)c(N)n1 observable=Kd recorded_number=40000
compound="Cc1ncc(C[n+]2csc(CCO[P@](=O)(O)OP(=O)(O)O)c2C)c(N)n1 [TPP, thiamine pyrophosphate]" observable=Kd recorded_number=500
compound="Cc1ncc(C[n+]2csc(CCOP(=O)(O)O)c2C)c(N)n1 [TP, thiamine monophosphate]" observable=Kd recorded_number=3000

* * *

- target_system: RNA construct encompassing nucleotides 1 through 315 of the lysC 5′-UTR
- stated_conditions: read-out: apparent KD; aptamer plus expression platform
pKd: −log10 of the molar value.
observable: pKd

compound_structure=NCCCC[C@H](N)C(=O)O result=~3.30

* * *

- target_system: 179 lysC RNA
- experimental_protocol: In-line probing of 179 lysC RNA
- stated_conditions: read-out: apparent KD; lysine analogs, data not shown, RNA construct not stated
pKd: −log10 of the molar value.
observable: pKd

compound_structure=NCCSC[C@H](N)C(=O)O observable=pKd result=~4.52

* * *

- target_system: 240 thiC RNA
- experimental_protocol: In-line probing of 240 thiC RNA
- stated_conditions: Example 2, FIG. 7A; read-out: apparent KD
observable: Kd (nM)

compound="Cc1ncc(C[n+]2csc(CCO[P@](=O)(O)OP(=O)(O)O)c2C)c(N)n1 [TPP, thiamine pyrophosphate]" recorded_number=100

* * *

- target_system: 93 xpt RNA (C to U mutation at position 74)
- stated_conditions: read-out: apparent KD
observable: Kd

compound="Nc1ncnc2nc[nH]c12 [adenine]" target_system="93 xpt RNA (C to U mutation at position 74)" result="~100 nM"

* * *

- target_system: 179 lysC RNA
- Format: binding, B. subtilis
- stated_conditions: 1 μM RNA, 3H-lysine 50 nM to 2.5 μM; read-out: apparent KD (Scatchard plot)
observable: Kd

compound_structure=NCCCC[C@H](N)C(=O)O result="~1 µM"

* * *

- target_system: 179 lysC RNA
- experimental_protocol: In-line probing of 179 lysC RNA
- stated_conditions: read-out: apparent KD; half-maximal structural modulation
pKd: −log10 of the molar value.
observable: pKd

compound_structure=NCCCC[C@H](N)C(=O)O observable=pKd result=~6.00

Sourced from patent US8440810B2
